Cited source: BigSolDB 2.1

Item-by-item account of solubility (mole fraction)
Conditions: in water, 298.15 K

Study these solved cases before continuing.
| Structure notation | Endpoint value |
| --- | --- |
| Cc1cc(N)ccc1S(=O)(=O)Nc1ccccc1[N+](=O)[O-] | 5.17e-07 |
| Cc1ccc(Cl)cc1NS(=O)(=O)c1ccc(N)cc1 | 7.72e-07 |
| Nc1ccc(S(=O)(=O)Nc2cc(Cl)ccc2Cl)cc1 | 7.25e-07 |
| Nc1ccc(S(=O)(=O)Nc2ccc(Cl)cc2)c(Cl)c1 | 4.72e-07 |
| Cc1cc(N)ccc1S(=O)(=O)Nc1ccc(Cl)cc1 | 6.71e-07 |

Moving on to the next molecule.
Notebook: Cc1ccc(NS(=O)(=O)c2ccc(N)cc2)cc1Cl , solubility (mole fraction) read as 1.53e-07
